Below is a list of entries, each paired with its recorded self-cleavage value.
B1: LINE1-full (parent)
chain: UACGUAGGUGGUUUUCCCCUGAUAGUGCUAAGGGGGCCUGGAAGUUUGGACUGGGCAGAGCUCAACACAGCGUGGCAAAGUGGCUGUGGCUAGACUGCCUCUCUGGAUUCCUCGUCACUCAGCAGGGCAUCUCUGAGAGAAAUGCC

# Variants of: B1
# measurement_description: self-cleavage, relative activity (ratio to wild type); higher = more cleavage; in vitro, sequencing; the parent is a self-cleaving ribozyme
value_kind: self-cleavage

# input_sequence, value_kind, recorded_result
records = [
    ("UACGUAGGUGGUUUUCCCCUGAUAGUGCUAAGGGGGCCUGGAAGUUUGGACUGGGCAGAGCUCAACACAGCGUGGCGAAGUGACUGUGGCUAGACUGCCUCUCUGGAUUCCUCGUCACUCAGCAGGGCAUCUCUGAGAGAAAUGCC", "self-cleavage", 1.75),
    ("UACGUAGGUGGUUUUCCCCUGAUAGUGCUAAGGGGGCCUGGAAGUUUGGACUGGGCAGAGCUCAACACAGCGUGGCAAAGUGGCAGUGGCUAGACUGCCUCUCUGGGUUCCUCGUCACUCAGCAGGGCAUCUCUGAGAGAAAUGCC", "self-cleavage", 0.08),
    ("UACGUAGGUGGUUUUCCCCUGAUAGUGCUAAGGGGGCCUGGAAGUUUGGACUGGGCAGAGCUCAACACAGCGUGGCAAAGUGGCUGUGGCUAGACUGCCUCUCCGGAAUCCUCGUCACUCAGCAGGGCAUCUCUGAGAGAAAUGCC", "self-cleavage", 2.04),
    ("UACGUAGGUGGUUUUCCCCUGAUAGUGCUAAGGGGGCCUGGAAGUUUGGACUGGGCAGAGCUCAACACAGCGUGGCAAAGUGGCUGUGGCUAGACUGCCUCUCUGGGUUCCUCGUCACUCAGCAGGGCAUCUCUGAGAGAAACGCC", "self-cleavage", 1.38),
    ("UACGUAGGUGGUUUUCCCCUGAUAGUGCUAAGGGGGCCUGGAAGUUUGGACUGGGCAGAGCUCAACACAGCGUGGCAAAGUGGCUGUGGCUAGACUGCCACUCUGGAUUCCUCGUCACUCAGCAGGGCAUCUCUGGGAGAAAUGCC", "self-cleavage", 1.25),
    ("UACGUAGGUGGUUUUCCCCUGAUAGUGCUAAGGGGGCCUGGGAGUUUGGACUGGGCAGAGCUCAACUCAGCGUGGCAAAGUGGCUGUGGCUAGACUGCCUCUCUGGAUUCCUCGUCACUCAGCAGGGCAUCUCUGAGAGAAAUGCC", "self-cleavage", 0.17),
    ("UACGUAGGUGGUUUUCCCCUGAUAGUGCUAAGGGGGCCUGGAAGUUUGGACUGGGCAGAGCUCAACACAGCGUGGCAAAGCGGCUGUGGCUAGACUGCCUCUCUGGAUUCCUCGUCACUCAGCAGGGCAUCUCUGAGAGAAAUACC", "self-cleavage", 0.42),
    ("UACGUAGGUGGUUGUCCCCUGAUAGUGCUAAGGGGGCCUGGAAGUUUGGACUGGGCAGAGCUCAACACAGCGUGGCAAAGUGGCUGUGGCUAGACUGCCUCUCUGGAUUCCUCGUCACUCAGCAGGGCGUCUCUGAGAGAAAUGCC", "self-cleavage", 0.84),
    ("UACGUAGGUGGUUUUCCCCUGAUAGUGCUAAGGGGGCCUGGAAGUUUGGACUGGGCAGAGCUCAACACAGCGUGGCAAAGUGGCCGUGGCUAGACAGCCUCUCUGGAUUCCUCGUCACUCAGCAGGGCAUCUCUGAGAGAAAUGCC", "self-cleavage", 0.07),
    ("UACGUAGGUGGUUUUCCCCUGAUAGUGCUAAGGGGGCCUGGAAGUUUGGACUGGGCAGAGCUCAACACAGUGUGGCAAUGUGGCUGUGGCUAGACUGCCUCUCUGGAUUCCUCGUCACUCAGCAGGGCAUCUCUGAGAGAAAUGCC", "self-cleavage", 0.74),
    ("UACGUAGGUGGUUUUCCCCUGUUAGUGCUAAGGGGGCCUGGAAGUUUGGACUGGGCAGAGCUCAACACAGCGUGGCAAAGUGGCAGUGGCUAGACUGCCUCUCUGGAUUCCUCGUCACUCAGCAGGGCAUCUCUGAGAGAAAUGCC", "self-cleavage", 0.08),
]

All values here come from the RNAGym collection of RNA variant scans (doi:10.7554/elife.90254).
